- system: MDM2 (Homo sapiens, UniProt Q00987)
- Sequence (Q00987 1-125): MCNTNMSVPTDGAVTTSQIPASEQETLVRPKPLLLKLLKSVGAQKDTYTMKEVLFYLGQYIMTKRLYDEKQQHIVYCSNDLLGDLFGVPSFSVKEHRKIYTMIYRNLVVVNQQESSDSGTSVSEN
- protocolDetails: Competitive fluorescence polarization assay for MDM2
- Format: binding
- experimentalContext: competitive FP assay, MDM2; read-out: Ki (MDM2)
pKi: −log10 of the molar value. Where a SMILES comes first, the peptide text is derived from it. Bridges are numbered along the chain shown (N, C = ends). [ ]: non-standard residue; d: D form. R8 = C=CCCCCCC[C@@](C)(N)C(=O)O; S5 = C=CCCC[C@](C)(N)C(=O)O; Nle = CCCC[C@H](N)C(=O)O
recordedEndpoint: pKi

Record CCCC[C@H](NC(=O)[C@H](CCC(N)=O)NC(=O)[C@H](CCC(N)=O)NC(=O)[C@]1(C)CCCC=CCCCCCC[C@@](C)(NC(=O)[C@H](Cc2ccccc2)NC(C)=O)C(=O)N[C@@H](C)C(=O)N[C@@H](Cc2ccc(O)cc2)C(=O)N[C@@H](Cc2c[nH]c3ccccc23)C(=O)N[C@@H]([C@@H](C)O)C(=O)N[C@@H](C)C(=O)N[C@@H](CC(C)C)C(=O)N1)C(=O)N[C@@H](C(N)=O)C(C)C [compound 41] (Ac-F[R8]AYWTAL[S5]QQ[Nle][dV]-NH2; staple 2-9) , field pKi: 7.00 to 8.00

###

List of IC50 values.
- system: MDMX (Homo sapiens, UniProt O15151)
- Sequence (O15151 1-125): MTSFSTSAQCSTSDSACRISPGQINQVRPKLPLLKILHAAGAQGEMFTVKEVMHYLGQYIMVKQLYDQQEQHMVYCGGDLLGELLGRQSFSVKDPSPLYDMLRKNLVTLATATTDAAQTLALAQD
- protocolDetails: Competitive fluorescence polarization assay for MDMX
- Format: binding
- experimentalContext: competitive FP assay, read-out: IC50 (MDMX)
Where a SMILES comes first, the peptide text is derived from it. Bridges are numbered along the chain shown (N, C = ends). [ ]: non-standard residue; d: D form. dPhe(4-CF3) = N[C@H](Cc1ccc(C(F)(F)F)cc1)C(=O)O; R8 = C=CCCCCCC[C@@](C)(N)C(=O)O; S8 = C=CCCCCCC[C@](C)(N)C(=O)O; Chg = N[C@H](C(=O)O)C1CCCCC1; R5 = C=CCCC[C@@](C)(N)C(=O)O; S5 = C=CCCC[C@](C)(N)C(=O)O; Nle = CCCC[C@H](N)C(=O)O; Ac3c = NC1(C(=O)O)CC1

Illustrative cases are given below, each with its answer.
Record CCCC[C@H](NC(=O)[C@H](C)NC(=O)[C@H](C)NC(=O)[C@]1(C)CCCC=CCCCCCC[C@@](C)(NC(=O)[C@H](Cc2ccccc2)NC(=O)[C@@H](NC(=O)[C@H](CC(C)C)NC(C)=O)[C@@H](C)O)C(=O)N[C@@H](C)C(=O)N[C@@H](Cc2ccc(O)cc2)C(=O)N[C@@H](Cc2c[nH]c3ccccc23)C(=O)N[C@@H](C)C(=O)N[C@@H](CCC(N)=O)C(=O)N[C@@H](CCC(C)C)C(=O)N1)C(=O)N[C@@H](C)C(=O)N[C@@H](C)C(N)=O [compound 323] , field IC50: > 1000 nM

Record CC(C)CC[C@@H]1NC(=O)[C@H](CCC(N)=O)NC(=O)[C@H](C)NC(=O)[C@H](Cc2c[nH]c3ccccc23)NC(=O)[C@H](Cc2ccc(O)cc2)NC(=O)[C@H](CCC(=O)O)NC(=O)[C@](C)(NC(=O)[C@H](Cc2ccccc2)NC(=O)[C@@H](NC(=O)[C@H](CC(C)C)NC(=O)CN(C)C)[C@@H](C)O)CCCCCCC=CCCC[C@@](C)(C(=O)N[C@@H](CO)C(=O)N[C@@H](C)C(=O)N[C@@H](C)C(N)=O)NC1=O [compound 279] , field IC50: 10 to 100 nM

Record CCCC[C@H](NC(=O)[C@H](CCC(N)=O)NC(=O)[C@H](CCC(N)=O)NC(=O)[C@]1(C)CCCC=CCCCCCC[C@@](C)(NC(=O)[C@H](Cc2ccccc2)NC(C)=O)C(=O)N[C@@H](C)C(=O)N[C@@H](Cc2ccc(O)cc2)C(=O)N[C@@H](Cc2c[nH]c3ccccc23)C(=O)N[C@@H]([C@@H](C)O)C(=O)N[C@@H](C)C(=O)N[C@@H](CC(C)C)C(=O)N1)C(=O)N[C@@H](C(N)=O)C(C)C [compound 41] (Ac-F[R8]AYWTAL[S5]QQ[Nle][dV]-NH2; staple 2-9) , field IC50: 10 to 100 nM

Record CC(=O)N[C@@H](C(=O)N[C@H](C)C(=O)N[C@H](Cc1c[nH]c2ccccc12)C(=O)N[C@H](Cc1ccc(O)cc1)C(=O)N[C@@]1(C)CCCCCCC=CCCC[C@](C)(C(=O)N[C@H](C)C(N)=O)NC(=O)[C@@H](CC(C)C)NC(=O)[C@@H](CC(C)C)NC(=O)[C@@H](CCCCN)NC(=O)[C@@H](CCC(=O)O)NC(=O)[C@@H](Cc2ccc(C(F)(F)F)cc2)NC(=O)[C@@H](CC(N)=O)NC1=O)[C@H](C)O [compound 757] (Ac-[dT][dA][dW][dY][S8][dN][dPhe(4-CF3)][dE][dK][dL][dL][R5][dA]-NH2; staple 5-12) , field IC50: > 1000 nM

New cases:
Record CC(=O)N[C@@H](Cc1ccccc1)C(=O)N[C@]1(C)CCCCCCC=CCCC[C@@](C)(C(=O)N[C@@H](C)C(=O)N[C@@H](C)C(=O)N[C@H](C(N)=O)C2CCCCC2)NC(=O)[C@H](CC(C)C)NC(=O)C2(CC2)NC(=O)[C@H](CCC(=O)O)NC(=O)[C@H](Cc2c[nH]c3ccccc23)NC(=O)[C@H](Cc2ccc(O)cc2)NC(=O)[C@H](C)NC1=O [compound 20] (Ac-F[R8]AYWE[Ac3c]L[S5]AA[Chg]-NH2; staple 2-9) , field IC50: 100 to 1000 nM

###

- system: MDM2 (Homo sapiens, UniProt Q00987)
- protocolDetails: Competitive fluorescence polarization assay for MDM2
- Assay type: binding
- experimentalContext: competitive FP assay, MDM2; read-out: IC50 (MDM2)
Where a SMILES comes first, the peptide text is derived from it. Bridges are numbered along the chain shown (N, C = ends). [ ]: non-standard residue; d: D form. R8 = C=CCCCCCC[C@@](C)(N)C(=O)O; S5 = C=CCCC[C@](C)(N)C(=O)O
recordedEndpoint: IC50

Record CC(=O)N[C@@H](CC(C)C)C(=O)N[C@H](C(=O)N[C@@H](Cc1ccccc1)C(=O)N[C@]1(C)CCCCCCC=CCCC[C@@](C)(C(=O)N[C@@H](CO)C(=O)N[C@@H](C)C(=O)N[C@@H](Cc2ccccc2)C(N)=O)NC(=O)[C@H](CC(C)C)NC(=O)[C@H](CCC(N)=O)NC(=O)[C@H](C)NC(=O)[C@H](Cc2c[nH]c3ccccc23)NC(=O)[C@H](Cc2ccc(O)cc2)NC(=O)[C@H](C)NC1=O)[C@@H](C)O [compound 7] (Ac-LTF[R8]AYWAQL[S5]SAF-NH2; staple 4-11) , field IC50: 10 to 100 nM

###

- system: MDM2 (Homo sapiens, UniProt Q00987)
- protocolDetails: Competitive fluorescence polarization assay for MDM2
- Format: binding
- experimentalContext: competitive FP assay, MDM2; read-out: IC50 (MDM2)
Where a SMILES comes first, the peptide text is derived from it. Bridges are numbered along the chain shown (N, C = ends). [ ]: non-standard residue; d: D form. R8 = C=CCCCCCC[C@@](C)(N)C(=O)O; Cba = N[C@@H](CC1CCC1)C(=O)O; S5 = C=CCCC[C@](C)(N)C(=O)O
recordedEndpoint: IC50

Record CC(=O)N[C@@H](CC(C)C)C(=O)N[C@H](C(=O)N[C@@H](Cc1ccccc1)C(=O)N[C@]1(C)CCCCCCC=CCCC[C@@](C)(C(=O)N[C@@H](CO)C(=O)N[C@@H](C)C(=O)N[C@@H](C)C(N)=O)NC(=O)[C@H](CC2CCC2)NC(=O)[C@H](CCCNC(=N)N)NC(=O)[C@H](C)NC(=O)[C@H](Cc2c[nH]c3ccccc23)NC(=O)[C@H](Cc2ccc(O)cc2)NC(=O)[C@H](CCC(=O)O)NC1=O)[C@@H](C)O [compound 363] (Ac-LTF[R8]EYWAR[Cba][S5]SAA-NH2; staple 4-11) , field IC50: 10 to 100 nM

###

- system: MDM2 (Homo sapiens, UniProt Q00987)
- protocolDetails: Competitive fluorescence polarization assay for MDM2
- Format: binding
- experimentalContext: IC50 (MDM2), competitive FP assay, MDM2
pIC50: −log10 of the molar value.
recordedEndpoint: pIC50

Record CC(=O)N[C@@H](CC(C)C)C(=O)N[C@H](C(=O)N[C@@H](Cc1ccccc1)C(=O)N[C@]1(C)CCCCCCCCCCC[C@@](C)(C(=O)N[C@@H](C)C(=O)N[C@@H](C)C(=O)N[C@@H](C)C(=O)N[C@@H](C)C(=O)N[C@@H](C)C(=O)N[C@H](C)C(N)=O)NC(=O)[C@H](CC(C)C)NC(=O)[C@H](CCC(N)=O)NC(=O)[C@H](C)NC(=O)[C@H](Cc2c[nH]c3ccccc23)NC(=O)[C@H](Cc2ccc(O)cc2)NC(=O)[C@H](CCC(=O)O)NC1=O)[C@@H](C)O , field pIC50: 7.00 to 8.00
